// reported TGI per item
System: PC-3 prostate
Assay: NCI tumour cell line growth inhibition, 48 h

A selection of reference data follows.
CCOC(=O)CCC(C(=O)OCC)n1nc2ccc(Nc3c(C)[n+]([O-])c4cc(Cl)ccc4[n+]3[O-])cc2n1 (stereo not given)	> 100 µM
CO/N=C1\CCC2(O)C3Cc4ccc(O)c5c4C2(CCN3CC2CC2)[C@H]1O5 (stereo not given in full)	> 100 µM
C=C(CN1CCN(c2cccc(C(F)(F)F)c2)CC1)c1ccc(C(=O)Nc2ccccc2N)cc1	> 50 µM

// Cc1ccc(S(=O)(=O)Oc2ccc3c4c(c(=O)oc3c2)CCCCC4)cc1 : TGI value = > 100 µM

// COC1(OC)N=C(N)C2(C#N)C(C)CC(=O)N(N(C)C)C12C#N (stereo not given) : TGI value = > 100 µM

###

System: HS 578T breast
Assay: NCI tumour cell line growth inhibition, 48 h
property label: TGI

A selection of reference data follows.
Cc1ccc(S(=O)(=O)Oc2ccc3c4c(c(=O)oc3c2)CCCCC4)cc1	> 100 µM
CCOC(=O)CCC(C(=O)OCC)n1nc2ccc(Nc3c(C)[n+]([O-])c4cc(Cl)ccc4[n+]3[O-])cc2n1 (stereo not drawn)	> 100 µM
Oc1[nH]c2ccccc2c1N=NC1=NCCCCN1	> 100 µM
Oc1ccc(-c2nc3cc(C(F)(F)F)ccc3n2CC2CCCN3CCCCC23)cc1 (stereo not drawn)	31.5 µM
c1ccc2nc3[nH]c4ccccc4c3cc2c1	5.84 µM

The reported HS 578T breast TGI of N=c1c2c3n(c4c(=O)n(-c5ccccc5)c(=S)n(c(=O)n1-c1ccccc1)c24)CCCCC3 is > 100 µM

The reported HS 578T breast TGI of COc1cc(/C=C/C(=O)c2cc(F)c(Cl)cc2Cl)cc(OC)c1OC is > 100 µM

The reported HS 578T breast TGI of CCOC(=O)CCC(NC(=O)c1ccc(CNc2nc3cc(N)cc(N)c3nc2-c2ccccc2)cc1)C(=O)OCC (stereo not drawn) is > 100 µM

The reported HS 578T breast TGI of CCC(=O)OC1CCn2c1nc1c2C(=O)C(C)=C(N2CC2)C1=O (stereo not drawn) is 0.78 µM

The reported HS 578T breast TGI of C=CC1OC(CCCOC(=O)C(C)(C)C)O[C@@H]1CC (stereo partly drawn) is > 100 µM

The reported HS 578T breast TGI of Cn1ccc(=Nc2ccc(NC(=O)c3ccc(N=c4ccn(C)c5ccc([N+](=O)[O-])cc45)cc3)cc2)cc1 is 92.6 µM

The reported HS 578T breast TGI of COC(=O)[C@H]1[C@H](C(=O)OC)[C@@H](C)c2c(ccc3c2[nH]c2ccccc23)[C@@H]1C is > 100 µM

The reported HS 578T breast TGI of Oc1ccc2c(c1)OCC(O)(c1ccccc1O)C2 (stereo not drawn) is > 100 µM

The reported HS 578T breast TGI of O=C1/C(=C/c2ccccc2)SC(=Nc2ccccc2)N1Nc1ccccc1 is > 100 µM

The reported HS 578T breast TGI of O=C(O)c1c(CC(Cc2ccc3c(c2)CCCC3)C(=O)O)ccc2c1CCCC2 (stereo not drawn) is > 100 µM

The reported HS 578T breast TGI of C=CCN1C(=O)/C(=C/c2ccc(C)cc2)N=C1SC/C=C/C is > 100 µM
